B1: glmS ribozyme (parent)
chain: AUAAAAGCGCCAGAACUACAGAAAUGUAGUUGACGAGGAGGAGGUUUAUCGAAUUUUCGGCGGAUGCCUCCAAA

- Variants of: B1
- experiment summary: self-cleavage kobs at 160 uM GlcN6P; higher = faster cleavage; RNA array
- test settings: with glucosamine-6-phosphate
This sample holds only a part of the variants without activity.
self-cleavage kobs at 160 uM GlcN6P overview
Write down the numeric answer in s⁻¹ and omit the unit.

Problem: Given A52U C70A , state its recorded self-cleavage kobs at 160 uM GlcN6P.
Solution: 3.06e-05
